Source of measurements: patent US12227500B2

tested.on: panel of 60 human kinases (Homo sapiens)
Construct: purchased Reaction Biology Corp
Sequence (Q16288 32-839): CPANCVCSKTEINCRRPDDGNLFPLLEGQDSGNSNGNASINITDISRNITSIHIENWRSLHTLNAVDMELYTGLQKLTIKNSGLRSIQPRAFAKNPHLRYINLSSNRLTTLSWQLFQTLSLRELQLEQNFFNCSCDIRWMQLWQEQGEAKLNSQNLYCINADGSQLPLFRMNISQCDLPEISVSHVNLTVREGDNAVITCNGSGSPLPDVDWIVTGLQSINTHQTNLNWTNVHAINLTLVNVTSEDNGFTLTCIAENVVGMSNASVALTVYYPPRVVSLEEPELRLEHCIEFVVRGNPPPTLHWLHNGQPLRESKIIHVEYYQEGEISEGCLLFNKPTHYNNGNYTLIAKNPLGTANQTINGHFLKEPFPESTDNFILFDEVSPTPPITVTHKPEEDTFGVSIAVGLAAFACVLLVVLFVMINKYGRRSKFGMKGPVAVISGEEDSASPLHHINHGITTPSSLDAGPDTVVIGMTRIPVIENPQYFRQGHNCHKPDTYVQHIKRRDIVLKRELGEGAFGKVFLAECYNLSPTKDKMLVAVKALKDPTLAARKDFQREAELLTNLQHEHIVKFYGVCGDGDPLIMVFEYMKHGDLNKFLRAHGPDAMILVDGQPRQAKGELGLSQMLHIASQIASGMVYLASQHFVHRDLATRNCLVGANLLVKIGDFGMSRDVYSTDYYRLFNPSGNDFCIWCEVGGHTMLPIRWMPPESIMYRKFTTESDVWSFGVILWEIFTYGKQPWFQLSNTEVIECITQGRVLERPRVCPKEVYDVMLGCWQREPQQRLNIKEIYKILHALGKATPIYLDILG
assay.summary: Radiolabeled ATP kinase assay, panel of 60 kinases (Table S5)
Type: biochemical
measurement.conditions: TRKC; 0.1 μM; 10 μM ATP; read-out: % Enzyme Activity (relative to DSMO controls)
measured.metric: remaining activity at 0.1 µM (%)

1) COc1ccccc1-c1c[nH]c2ncc(-c3ccc(CN4CCN(C)CC4)cc3)cc12
34.8
2) CN1CCN(Cc2ccc(-c3cnc4[nH]cc(-c5cccc(Cl)c5)c4c3)cc2)CC1
51.2
3) CN1CCN(Cc2ccc(-c3cnc4[nH]cc(-c5ccc6[nH]ccc6c5)c4c3)cc2)CC1 [Compound 1, reference compound]
6.69
4) CN1CCN(Cc2ccc(-c3cnc4[nH]cc(-c5ccncc5)c4c3)cc2)CC1
25.4
5) CN1CCN(Cc2ccc(-c3cnc4[nH]cc(-c5cnn(Cc6ccccc6)c5)c4c3)cc2)CC1
9.83
6) CN1CCN(Cc2ccc(-c3cnc4[nH]cc(-c5ccoc5)c4c3)cc2)CC1
25.8
7) Cc1nn(C)c(C)c1-c1c[nH]c2ncc(-c3ccc(CN4CCN(C)CC4)cc3)cc12
13.1
8) CN1CCN(Cc2ccc(-c3cnc4[nH]cc(-c5ccccc5Cl)c4c3)cc2)CC1
6.32
9) CN1CCN(Cc2ccc(-c3cnc4[nH]cc(-c5ccc6c(c5)OCCO6)c4c3)cc2)CC1
17.7
